# Tested on: transient receptor potential cation channel C4 beta (TRPC4), mouse
# Protocol Description: activators of mouse TRPC4 channel, confirmation, cell-based, second round, Fluo4, HEK293 TRPC4beta/mu-opioid, 1 µM (AID 2461);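 for activation: 0% = wells without test compound as baseline of integrated fluorescence ratio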
# Run Parameters: Fluo4 calcium fluorescence, at 1 µM; stronger effect = higher value
Calls of active or inactive are those of the source.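 Rule for the calls: active = primary screen active and over 50% activation in each of two duplicate runs; inactive = the rest.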
Outcome Measure: activation

> print(dat)
                                   compound  outcome.measure  observed.measurement
1  Cc1cccc(NC(=S)NCC(c2cccnc2)N(C)C)c1 (stereo not given)       activation         115% (active)
2                 COc1cccc(CNCc2ccccn2)c1OC       activation          56% (active)
3  C/C=C(\C)CN1CCC(n2nccc2NC(=O)CCc2ccccc2)CC1       activation              inactive
4  Cc1ccc(COn2c(-c3ccc(Cl)cc3Cl)nc3ncccc32)cc1       activation              inactive
5  Cc1ccc(Sc2cc(C(=O)NCCN(C)C)c3ccccc3n2)cc1       activation              inactive

Give the reported activation for COc1ccc(C(=O)NNC(=S)NC(=O)c2ccccc2)cc1 (system: transient receptor potential cation channel C4 beta (TRPC4), mouse).
inactive

Item: COc1ccc(-c2nc(CN3CCC(C(=O)NC4CCCC4)CC3)c(C)o2)cc1OC Test system: transient receptor potential cation channel C4 beta (TRPC4), mouse Read-out: activation Value: ?
70% (active)

# value lookup — system transient receptor potential cation channel C4 beta (TRPC4), mouse, readout activation, item CCCCN(CC)CCNC(=O)c1cc2cc3ccc(Cl)cc3nc2o1
inactive

Entry COc1ccc2nc(NS(=O)(=O)c3ccc(NC(C)=O)cc3)sc2c1 , system transient receptor potential cation channel C4 beta (TRPC4), mouse: what activation was measured?
inactive

// map CN(C)C(CNC(=O)c1ccc2ccccc2n1)c1ccccc1 (stereo not given) to recorded activation (system: transient receptor potential cation channel C4 beta (TRPC4), mouse)
inactive

Notebook entry, transient receptor potential cation channel C4 beta (TRPC4), mouse assay: activation of CCOc1ccccc1CN1CCNC(=O)C1CC(=O)NCCc1ccccn1 (stereo not given) = ?
inactive

Enter reported activation observed with transient receptor potential cation channel C4 beta (TRPC4), mouse for COc1ccccc1C(=O)NNC(=S)NC(=O)c1cccs1
inactive

Please state recorded activation (tested on transient receptor potential cation channel C4 beta (TRPC4), mouse) of O=c1c2c(-c3ccccc3)csc2ncn1/N=C/c1cccc([N+](=O)[O-])c1O
inactive

Which activation is reported with transient receptor potential cation channel C4 beta (TRPC4), mouse for this entry: Clc1ccc(COn2c(-c3ccc(Cl)cc3Cl)nc3ncccc32)cc1 ?
inactive

Identify the measured activation of CC1(c2ccc(Cl)cc2Cl)OCC(Cn2ccnc2)O1 (stereo not given) for transient receptor potential cation channel C4 beta (TRPC4), mouse.
inactive

Every entry's value here was drawn from PubChem BioAssay.
